- System: Granta-519 cells
- test.method.notes: Cell proliferation assay on Granta-519 cells (CCK-8)
- Assay type: cell-based
- protocol.conditions: Homo sapiens, 240 h; Granta-519 cell line, day 10; read-out: Prolif. IC50
- Method: Granta-519 cells are maintained in PRMI 1640 (Corning Cellgro, Catalog #: 10-040-CV) medium supplemented with 10% v/v FBS (GE Healthcare, Catalog #: SH30910.03). Formula I is dissolved in DMSO to make 10 mM stocks and stored at −20° C. […] One day 3, 10 μL of Cell Counting Kit-8 (CCK-8, Jojindo, CK04-13) solution is added to a new 96 well plate. […] Plates are incubated in CO2 incubator for 2 hours and OD450 values are measured with a microplate reader (iMark microplate reader, Bio-Rad). […]
result.type: pIC50
pIC50 field: float, defined as -log10 of concentration (mol/L).

Look at this compound and give its reported pIC50. C[C@@]1(O)[C@@H]([C@H](O)c2ccc(Cl)c(Cl)c2)O[C@@H](n2ccc3c(N)ncnc32)[C@@H]1O
7.12

====

Consider the following compounds and their measured water adsorbed (adsorption/desorption isotherms) readings.
- test.method.notes: Dynamic vapor sorption (DVS)
- Type: physicochemical
- protocol.conditions: at about 95% humidity

See these solved cases before continuing.
C[C@@]1(O)[C@@H]([C@H](O)c2ccc(Cl)c(Cl)c2)O[C@@H](n2ccc3c(N)ncnc32)[C@@H]1O.Cl [Formula IB, Form I] = ~0.5%
C[C@@]1(O)[C@@H]([C@H](O)c2ccc(Cl)c(Cl)c2)O[C@@H](n2ccc3c(N)ncnc32)[C@@H]1O.Cl [Formula IB, Form III] = ~2.8%
C[C@@]1(O)[C@@H]([C@H](O)c2ccc(Cl)c(Cl)c2)O[C@@H](n2ccc3c(N)ncnc32)[C@@H]1O.Cl [Formula IB, Form II] = ~6%

Report water adsorbed (adsorption/desorption isotherms) for C[C@@]1(O)[C@@H]([C@H](O)c2ccc(Cl)c(Cl)c2)O[C@@H](n2ccc3c(N)ncnc32)[C@@H]1O [Formula I, Form I] please.
~0.5%

====

- test.method.notes: physchem
- protocol.conditions: 25 °C, fassif, thermodynamic from solid
result.type: solubility at 4 h

Which solubility at 4 h value is on record for O=C1C(O)=C([C@H]2CC[C@H](c3ccc(Cl)cc3)CC2)C(=O)c2ccccc21 [Atovaquone] ?
< 2 µg/mL

====

- test.method.notes: Gravimetric solubility estimate in water
- Assay type: physicochemical
- protocol.conditions: thermodynamic from solid
result.type: solubility

Recorded solubility for C[C@@]1(O)[C@@H]([C@H](O)c2ccc(Cl)c(Cl)c2)O[C@@H](n2ccc3c(N)ncnc32)[C@@H]1O.O=C(O)C(=O)O [Formula IC] , please?
< 300 µg/mL

For the compound shown here, C[C@@]1(O)[C@@H]([C@H](O)c2ccc(Cl)c(Cl)c2)O[C@@H](n2ccc3c(N)ncnc32)[C@@H]1O.O=C(O)/C=C\C(=O)O [Formula IA] , give the reported solubility.
~1100 µg/mL

I would be grateful if you could share the reported solubility for C[C@@]1(O)[C@@H]([C@H](O)c2ccc(Cl)c(Cl)c2)O[C@@H](n2ccc3c(N)ncnc32)[C@@H]1O.O=P(O)(O)O [Formula ID] .
< 300 µg/mL

Consider the compound shown here: C[C@@]1(O)[C@@H]([C@H](O)c2ccc(Cl)c(Cl)c2)O[C@@H](n2ccc3c(N)ncnc32)[C@@H]1O.Cl [Formula IB] What is its recorded solubility?
~800 µg/mL

====

- test.method.notes: Rat non-crossover PK study
- Assay type: in vivo, rat (SD, male, non-fasted)
- protocol.conditions: male, SD, blood, po, 1 mg/kg p.o.
result.type: bioavailability

Please give the measured bioavailability for this molecule: C[C@@]1(O)[C@@H]([C@H](O)c2ccc(Cl)c(Cl)c2)O[C@@H](n2ccc3c(N)ncnc32)[C@@H]1O
> 100%

====

- test.method.notes: FaSSIF solubility
- protocol.conditions: 25 °C, thermodynamic from solid
result.type: solubility at 4 h

What does the data say about its solubility at 4 h? Entry: CC(=O)CC(c1ccccc1)c1c(O)c2ccccc2oc1=O (stereo not shown)
10 to 25 µg/mL

====

- test.method.notes: Dynamic vapor sorption (DVS)
- Format: physicochemical
- protocol.conditions: room temperature, normal humidity range (40-50% RH)
- Procedure: The dynamic vapor sorption experiments can be done with a VTI SGA-Cx100 Symmetric Vapor Sorption Analyzer. The moisture uptake profile is completed in three cycles of 10% RH increments with adsorption from 5% to 95% RH, followed by desorption of 10% increments from 95% to 5%. The equilibration criteria are 0.0050 wt % in 5 minutes with a maximum equilibration time of 180 minutes. All adsorption and desorption are performed at room temperature (21-22° C.). […]
result.type: water adsorbed (adsorption/desorption isotherms)

Sample answers from the record:
C[C@@]1(O)[C@@H]([C@H](O)c2ccc(Cl)c(Cl)c2)O[C@@H](n2ccc3c(N)ncnc32)[C@@H]1O.Cl [Formula IB, Form II] = ~3%
C[C@@]1(O)[C@@H]([C@H](O)c2ccc(Cl)c(Cl)c2)O[C@@H](n2ccc3c(N)ncnc32)[C@@H]1O.Cl [Formula IB, Form III] = ~1%
C[C@@]1(O)[C@@H]([C@H](O)c2ccc(Cl)c(Cl)c2)O[C@@H](n2ccc3c(N)ncnc32)[C@@H]1O.Cl [Formula IB, Form I] = ~0.1%

Entry under review: C[C@@]1(O)[C@@H]([C@H](O)c2ccc(Cl)c(Cl)c2)O[C@@H](n2ccc3c(N)ncnc32)[C@@H]1O [Formula I, Form I] . Reported water adsorbed (adsorption/desorption isotherms)?
~0.8%
